test system: COLO 205 colon; assay: NCI-60 one-dose screen, 48 h (100 = growth as untreated, 0 = no growth, -100 = all killed); details: 10 µM unless noted
About 83,000 compounds went through this panel and 20% of them were active in at least one assay; those are over-represented in the sample as a whole.

SMILES_RECORD	growth / %
Cc1ccc(S(=O)(=O)n2cc(C(=O)C(=O)Nc3ccncc3)c3ccccc32)cc1	107
CC(C)(C)n1cc(-c2ccnc(NCCNS(=O)(=O)c3ccc(F)cc3)c2)c(-c2cccc(O)c2)n1	-2.98
CC(=O)c1cc2c(N)c(C(=O)Nc3cccc4c3OCCO4)sc2nc1C	86.6
CC(C)(C)n1cc(-c2ccnc(NCCCNS(=O)(=O)c3cccc(F)c3)c2)c(-c2cccc(O)c2)n1	8.99
CC(C)(C)OC(=O)NCCc1ccc(N=C=S)cc1	72.4
Oc1ccc2cc(Br)ccc2c1-c1c(O)ccc2cc(Br)ccc12	54.7

###

# key: entry, value: growth
system: MCF7 breast; experiment: NCI-60 one-dose screen, 48 h (100 = growth as untreated, 0 = no growth, -100 = all killed); details: 10 µM unless noted
This is part of a sample that, as a whole, favours compounds with a hit. Of some 83,000 tested, about 20% had one in any assay. Calls of active or inactive are those of the source. How the source made its calls: active means growth percent below 10; inactive means the rest.

COMPOUND	TARGET_OF_ASSAY	growth
Cc1c(C(N)=O)sc2c1c(=O)n(Cc1ccccc1)c1nnc(Nc3ccccc3)n21	MCF7 breast	100% (inactive)
O=C(NNC(=O)N1c2ccccc2C=Cc2ccccc21)c1ccccc1	MCF7 breast	95.6% (inactive)
COc1ccc(C2=Nn3c(nnc3-n3nc(C)cc3C)SC2)cc1	MCF7 breast	16.9% (inactive)
Cc1ccc(C(=O)NCCCNc2nccc(-n3ccc4cccnc43)n2)cc1	MCF7 breast	103% (inactive)
CN1C(=O)N(C)C2C1NN=c1s/c(=C\c3cccnc3)c(=O)n12 (stereo not given)	MCF7 breast	51.6% (inactive)
CCOC(=O)c1cn2c3c(cc(C)cc3c1=O)C(=O)/C(=C/c1ccccc1)C2	MCF7 breast	86.7% (inactive)
NC(=O)CCCN1C/C(=C\c2ccccc2)C(=O)c2ccccc21	MCF7 breast	96.7% (inactive)
COc1cc(Nc2ncccc2C(=O)NCc2cn(Cc3cccc(Oc4ccccc4)c3)nn2)cc(OC)c1	MCF7 breast	18.3% (inactive)
Brc1cccc(-c2cc(-c3ccc4c(c3)OCCCO4)[nH]n2)c1	MCF7 breast	23.2% [25 µM] (inactive)
CC(=O)Nc1scc[n+]1Cc1ccccc1	MCF7 breast	98.4% (inactive)

###

tested on: CAKI-1 renal; experiment: NCI-60 one-dose screen, 48 h (100 = growth as untreated, 0 = no growth, -100 = all killed); conditions: 10 µM unless noted
About 83,000 compounds went through this panel and 20% of them were active in at least one assay; those are over-represented in the sample as a whole.
Field: label. Allowed values: TRUE (growth < 70%) or FALSE (growth >= 70%).

COMPOUND	GROUP_LABEL
O=C(c1ccccc1)c1c(/C=C/c2ccccc2)c2ccccc2[nH]c1=O	FALSE
Cc1nc2c3c(ncn2n1)Oc1c(c(=O)[nH]c2ccccc12)C3c1ccc(Cl)cc1 (stereo not drawn)	FALSE
CC(C)OC(=O)N1CCOCC1	FALSE
OC(c1cc2cc(Br)ccc2c2cc(Br)ccc12)C1CCCCN1 (stereo not drawn)	TRUE
CCCCCCCCCCCC(=O)NCCC[N+](C)(C)CC(=O)[O-]	FALSE
O=C(O)c1cn(C2CC2)c2cc(N3CCN(C(=O)/C=C/c4ccc(Cl)cc4)CC3)c(F)cc2c1=O	FALSE
Cc1ccc(N2CCN(C(C)C(N)=O)CC2)cc1 (stereo not drawn)	FALSE
COc1ccc(-n2c(=S)sc3c(Cl)nc(C)nc32)c(OC)c1	TRUE
CCN(CC)CCOc1ccc(Cl)c(C)c1	FALSE
CN(C)c1cccc2c(S(=O)(=O)/N=C(\N)Nc3nc4ccccc4s3)cccc12	TRUE
COc1ccc(C(=O)c2cc(OC)c3c(c2)OCO3)cc1O	TRUE
CC12CCC3C4(C)COC(c5ccccc5Cl)OC4CCC3(C)C1CC(C1=CCOC1=O)O2 (stereo not drawn)	TRUE
COC(=O)c1cc2cc(-c3ccc(OC)cc3)cnc2[nH]1	TRUE
C=C1CCC2C3(C)COC(C)(C)OC3CCC2(C)C1C/C=C1/C(=O)OCC1Oc1ccccc1OC (stereo not drawn)	FALSE
CC(C)(C)OC(=O)NC(CSCc1ccccc1)C(=O)ON1C(=O)CCC1=O (stereo not drawn)	FALSE
C=C[C@@H]1C[C@H](O)Cc2c(C)cc(C)cc2N1	FALSE
CCOC(=O)CN1/C(=N/c2sc3c(c2C(=O)OCC)CCN(C(=O)OCC)C3)SC(=O)/C1=C\C(=O)OC	FALSE
CN1CCN(Cc2ccc(NC(=O)c3cncc(C#Cc4cnc(N)c5ccncc45)c3)cc2C(F)(F)F)CC1	TRUE
CCN(CC)c1ccc(C(=N)c2ccc(N(CC)CC)cc2)cc1	TRUE
COc1ccc(C2=Nn3c(nnc3-n3nc(C)cc3C)SC2)cc1	TRUE
COc1ccc(C(=O)c2cc(OC)c(OC)c(OC)c2OC)cc1O	TRUE
CN(C[C@H]1Cc2c(cccc2N2CCN(c3ncccn3)CC2)CN1)[C@H]1CCCc2cccnc21	TRUE
CCCCCCCCCCCCNC(=O)[C@H]1CSC(c2cc3ccccc3s2)N1 (stereo partly drawn)	FALSE
Cc1nn(-c2ccc([N+](=O)[O-])cc2)c2ncnc(NCCc3ccccc3)c12	FALSE
Cc1ccc(-c2cc3nc(C(Cl)Cl)nc(-c4cccnc4)n3n2)cc1	TRUE
Cc1nc2ncccc2nc1Nc1ccc(S(=O)(=O)Nc2cncs2)cc1	FALSE
C=C(C)[C@@H]1C[C@@H]2Cc3cc(Cl)ccc3N1O2	FALSE
Nc1cccc(-c2nc3sccn3c2-c2ccnc(NCCNS(=O)(=O)c3ccc(C(F)(F)F)cc3)n2)c1	TRUE
O=c1ccn(C2CC(O)C(O)C(CO)O2)c(=O)[nH]1 (stereo not drawn)	FALSE
CN1CCN(Cc2ccc(NC(=O)c3cncc(C#Cc4cnc(N)c5cnccc45)c3)cc2C(F)(F)F)CC1	TRUE
CN(C)CCOC(=O)Nc1ccccc1Cl	FALSE
NC(=S)N/N=C1\CCCC(C(F)(F)F)C1 (stereo not drawn)	FALSE
NC(=N\N=C/c1ccc(O)cc1)/C(N)=N\N=C/c1ccc(O)cc1	TRUE
COc1ccc(C2C=C(c3ccc(Cl)cc3)N=C3SC=C(C)N32)c(Br)c1 (stereo not drawn)	TRUE
O=[N+]([O-])c1ccc(-c2cn(-c3ccccc3)c(-c3ccccc3)n2)cc1	FALSE
CC1CN(c2oc(-c3ccccc3)nc2C#N)CC(C)O1 (stereo not drawn)	FALSE
